MEASUREMENT NOTES: Binding affinity to poly(rA).(rU) RNA duplex (unknown origin) assessed as thermal stability by measuring change in melting temperature at 5 uM by UV-Vis spectrophotometry
ENDPOINT NAME: ΔTm (°C)

(I) C#CCOCCOCCOCCOCCOCCOCCOc1ccc(-c2nc3ccc(-c4nc5ccc(N6CCN(C)CC6)cc5[nH]4)cc3[nH]2)cc1
(II) C#CCOCCCCCCCCOc1ccc(-c2nc3ccc(-c4nc5ccc(N6CCN(C)CC6)cc5[nH]4)cc3[nH]2)cc1
Q. Please indicate which has the smaller reported ΔTm: I , or II . Reply with the label of the item you choose.
A. I

src = ChEMBL document CHEMBL3868633
